- EXPERIMENTAL TARGET: IDO1 (Homo sapiens, UniProt P14902)
- Construct: endogenous in cells
- Sequence (P14902 whole entry): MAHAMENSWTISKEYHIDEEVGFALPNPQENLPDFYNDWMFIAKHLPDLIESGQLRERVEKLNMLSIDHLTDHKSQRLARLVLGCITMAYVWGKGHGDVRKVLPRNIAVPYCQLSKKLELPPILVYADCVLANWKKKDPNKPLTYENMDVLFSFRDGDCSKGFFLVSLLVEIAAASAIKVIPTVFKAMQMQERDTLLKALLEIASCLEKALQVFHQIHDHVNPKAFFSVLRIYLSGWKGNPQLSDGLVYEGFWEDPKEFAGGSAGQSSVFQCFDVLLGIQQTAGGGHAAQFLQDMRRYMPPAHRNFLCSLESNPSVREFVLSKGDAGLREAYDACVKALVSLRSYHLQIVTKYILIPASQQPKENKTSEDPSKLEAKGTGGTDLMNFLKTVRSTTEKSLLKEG
- PROTOCOL NOTES: IDO1 cell-based assay (HeLa cells, IFNgamma-induced, N-formylkynurenine/L-tryptophan by RFMS)
- MEASUREMENT CONTEXT: 10 ng/mL IFNgamma, 24 hours
Collected IC50 values appear next to each entry.
ASSAY READOUT: IC50

MOLECULE	ASSAY READOUT	READOUT VALUE
CC[C@@H](NC(=O)Nc1ccc(Cl)c(F)c1)[C@H]1[C@@H]2C[C@@H](n3cnc4cc(F)c(F)cc43)C[C@@H]21	IC50	< 200 nM
CCC(NC(=O)c1ccc(Cl)cc1)[C@H]1[C@@H]2C[C@@H](NC(=O)c3cncc(Cl)n3)C[C@@H]21 (stereo partly drawn)	IC50	< 200 nM
CCC(NC(=O)c1ccc(Cl)cc1)[C@H]1[C@@H]2C[C@@H](n3c(=O)[nH]c4ccccc43)C[C@@H]21 (stereo partly drawn)	IC50	200 to 2000 nM

====

- EXPERIMENTAL TARGET: IDO1 (Homo sapiens, UniProt P14902)
- Construct: endogenous in cells
- PROTOCOL NOTES: IDO1 cell-based assay (HeLa cells, IFNgamma-induced, N-formylkynurenine/L-tryptophan by RFMS)
- MEASUREMENT CONTEXT: 10 ng/mL IFNgamma, 24 hours
- Method: HeLa cells were obtained from the American Type Culture Collection (ATCC) and maintained in DMEM media containing 10% FBS. Cells (7,000/well) were seeded onto a 384 well plate in 50 μL of media and incubated at 37° C., 5% CO2 overnight. […] Samples were analyzed via RFMS to quantify N-Formyl Kynurenine (AUC) and L-tryptophan (AUC). […] Dose-response curves were analyzed using IC50 regression curve fitting (GeneData Screener). […]

COMPOUND	EXPERIMENTAL TARGET	IC50
CCC(NC(=O)c1ccc(Cl)cc1)[C@H]1[C@@H]2C[C@@H](n3nnc4ccc(Br)cc43)C[C@@H]21 (stereo partly shown)	IDO1 (Homo sapiens, UniProt P14902)	< 0.2 µM
CCC(NC(=O)c1ccc(Cl)cc1)[C@H]1[C@@H]2C[C@@H](Oc3ncnc4ccccc34)C[C@@H]21 (stereo partly shown)	IDO1 (Homo sapiens, UniProt P14902)	< 0.2 µM
CCC(NC(=O)c1ccc(C#N)cc1)[C@H]1[C@@H]2C[C@@H](Oc3cnnc4ccccc34)C[C@@H]21 (stereo partly shown)	IDO1 (Homo sapiens, UniProt P14902)	< 0.2 µM
O=C(Cc1ccc(Cl)cc1)N[C@H]1[C@@H]2C[C@@H](Oc3ncnc4ccc(F)cc34)C[C@@H]21	IDO1 (Homo sapiens, UniProt P14902)	< 0.2 µM
CCC(NC(=O)c1cnc(OC)nc1)[C@H]1[C@@H]2C[C@@H](Oc3ncnc4ccc(F)cc34)C[C@@H]21 (stereo partly shown)	IDO1 (Homo sapiens, UniProt P14902)	2 to 5 µM
CCC(NC(=O)c1ccc(Cl)cc1)[C@H]1[C@@H]2C[C@@H](NC(=O)c3cc(C(F)(F)F)ccn3)C[C@@H]21 (stereo partly shown)	IDO1 (Homo sapiens, UniProt P14902)	< 0.2 µM
O=C(NC1C2CC(Oc3ccnc4ccccc34)CC21)c1ccc(Cl)cc1 (stereo not shown)	IDO1 (Homo sapiens, UniProt P14902)	0.2 to 2 µM

====

- EXPERIMENTAL TARGET: IDO1 (Homo sapiens)
- Construct: endogenous in cells; host or cells: HeLa cells (ATCC), IFNgamma-induced
- PROTOCOL NOTES: IDO1 cell-based assay (HeLa cells, IFNgamma-induced, N-formylkynurenine/L-tryptophan by RFMS)
- MEASUREMENT CONTEXT: 10 ng/mL IFNgamma, 24 hours
pIC50: −log10 of the molar value.

COMPOUND	pIC50
CCC(NC(=O)c1ccc(Cl)cc1)[C@H]1[C@@H]2C[C@@H](NC(=O)c3ccc(OC)cn3)C[C@@H]21 (stereo partly shown)	5.70 to 6.70
Cn1cc(C(=O)NC[C@@H]2[C@H]3C[C@H](n4cnc5cc(F)c(F)cc54)C[C@@H]23)cn1	< 5.30
CC[C@@H](NC(=O)c1ccc(Cl)cc1)[C@H]1[C@@H]2C[C@@H](n3cc(I)cn3)C[C@@H]21	> 6.70
O=C(Cc1ccc(Cl)cc1)NC1[C@H]2CC(Oc3cnnc4ccccc34)C[C@@H]12 (stereo partly shown)	5.70 to 6.70
CCC(NC(=O)c1ccc(Cl)cc1)[C@H]1[C@@H]2C[C@@H](C(C(=O)OC)c3ccccc3)C[C@@H]21 (mixture of isomers) [Compound 203]	5.70 to 6.70
O=C(NC[C@@H]1[C@H]2C[C@H](n3cnc4cc(F)c(F)cc43)C[C@@H]12)c1ccc(Cl)c(F)c1	> 6.70
CCC(NC(=O)c1ccc(Cl)cc1)[C@H]1[C@@H]2C[C@@H](N3Cc4ccccc4C3=O)C[C@@H]21 (stereo partly shown)	> 6.70

====

Collected pIC50 values appear next to each entry.
- EXPERIMENTAL TARGET: IDO1 (Homo sapiens, UniProt P14902)
- Construct: endogenous in cells
- PROTOCOL NOTES: IDO1 cell-based assay (HeLa cells, IFNgamma-induced, N-formylkynurenine/L-tryptophan by RFMS)
- MEASUREMENT CONTEXT: 10 ng/mL IFNgamma, 24 hours
pIC50: −log10 of the molar value.

COMPOUND	pIC50
CC[C@@H](NC(=O)Nc1ccc(Cl)cc1)[C@H]1[C@@H]2C[C@@H](n3cnc4cc(F)c(F)cc43)C[C@@H]21	> 6.70
CCc1cnnn1[C@@H]1C[C@@H]2[C@H](C1)[C@H]2C(CC)NC(=O)c1ccc(Cl)cc1 (stereo partly drawn)	> 6.70
CCC(NC(=O)c1ccc(Cl)cc1)[C@H]1[C@@H]2C[C@@H](Oc3ccnc(C)c3)C[C@@H]21 (stereo partly drawn)	> 6.70
COc1ccc(C(=O)NC(C)[C@H]2[C@@H]3C[C@@H](Oc4ncnc5cc(F)ccc45)C[C@@H]32)cn1 (stereo partly drawn)	> 6.70
CCC(NC(=O)c1ccc(Cl)cc1)[C@H]1[C@@H]2C[C@@H](n3nncc3C(C)(C)O)C[C@@H]21 (stereo partly drawn)	> 6.70
CCC(NC(=O)c1ccc(Cl)cc1)[C@H]1[C@@H]2C[C@@H](NC(=O)c3ccc(F)cn3)C[C@@H]21 (stereo partly drawn)	> 6.70
O=S(=O)(NC1C2CC(Oc3ccnc4ccccc34)CC21)c1ccc(Cl)cc1 (stereo not drawn)	< 5.30
CCC(NC(=O)c1ccc(Cl)cc1)[C@H]1[C@@H]2C[C@@H](n3cc(CO)nn3)C[C@@H]21 (stereo partly drawn)	5.70 to 6.70
CC[C@@H](NC(=O)c1ccc(Cl)cc1)[C@H]1[C@@H]2C[C@@H](n3c(C(F)(F)F)nc4ccc(F)cc43)C[C@@H]21	5.70 to 6.70
CC[C@@H](NC(=O)c1ccc(Cl)cc1)[C@H]1[C@@H]2C[C@@H](Nc3ncnc4ccc(C)cc34)C[C@@H]21	> 6.70
CC(C(=O)Nc1ccc(Cl)cc1)[C@H]1[C@@H]2C[C@@H](Oc3cnnc4ccc(F)cc34)C[C@@H]21 (stereo partly drawn)	> 6.70
O=C(NC[C@@H]1[C@H]2C[C@H](n3cnc4ccc(F)cc4c3=O)C[C@@H]12)c1ccc(Cl)cc1	5.70 to 6.70
CCC(NC(=O)c1ccc(Cl)cc1)[C@H]1[C@@H]2C[C@@H](NC(=O)c3cccnc3)C[C@@H]21 (stereo partly drawn)	> 6.70
CCC(NC(=O)c1ccc(Cl)cc1)[C@H]1[C@@H]2C[C@@H](NS(=O)(=O)c3ccccc3)C[C@@H]21 (stereo partly drawn)	5.70 to 6.70
CC[C@@H](NC(=O)c1ccc(Cl)cc1)[C@H]1[C@@H]2C[C@@H](Nc3ncnc4ccc(F)cc34)C[C@@H]21	> 6.70
O=C(NC(CCO)[C@H]1[C@@H]2C[C@@H](Oc3cnnc4ccccc34)C[C@@H]21)c1ccc(Cl)cc1 (stereo partly drawn)	5.70 to 6.70
Cc1cccc(C(=O)NC[C@@H]2[C@H]3C[C@H](n4cnc5cc(F)c(F)cc54)C[C@@H]23)c1	5.70 to 6.70
CC(NC(=O)c1ccc(Cl)cc1)[C@H]1[C@@H]2C[C@@H](Oc3ncnc4ccc(F)cc34)C[C@@H]21 (stereo partly drawn) [Compound 13]	> 6.70
Cc1ccc(C(=O)NC[C@@H]2[C@H]3C[C@H](n4cnc5cc(F)c(F)cc54)C[C@@H]23)cc1	> 6.70
O=C(NC(CCO)[C@H]1[C@@H]2C[C@@H](Oc3ncnc4ccc(F)cc34)C[C@@H]21)c1ccc(Cl)cc1 (stereo partly drawn)	5.30 to 5.70
CCC(NC(=O)c1ccc(Cl)cc1)[C@H]1[C@@H]2C[C@H](n3nncc3C3CC3)C[C@@H]21 (stereo partly drawn)	5.70 to 6.70
CCC(NC(=O)c1ccc(Cl)cc1)[C@H]1[C@@H]2C[C@@H](n3cc(N(C)C)nn3)C[C@@H]21 (stereo partly drawn)	> 6.70
CCC(NC(=O)c1ccc(Cl)cc1)[C@H]1[C@@H]2C[C@@H](n3ncc4cc(F)ccc43)C[C@@H]21 (stereo partly drawn)	> 6.70
CCC(NC(=O)c1ccc(Cl)cc1)[C@H]1[C@@H]2C[C@@H](n3ncc(-c4ccccc4)n3)C[C@@H]21 (stereo partly drawn)	> 6.70
CCC(NC(=O)c1ccc(Cl)cc1)[C@H]1[C@@H]2C[C@@H](NC(=O)c3ccncn3)C[C@@H]21 (stereo partly drawn)	> 6.70
CCC(NC(=O)c1ccc(Cl)cc1)[C@H]1[C@@H]2C[C@@H](Oc3ncncc3F)C[C@@H]21 (stereo partly drawn)	> 6.70
CCC(NC(=O)c1ccc(Cl)cc1)[C@H]1[C@@H]2C[C@@H](n3cc(C4CN(C(=O)OC(C)(C)C)C4)nn3)C[C@@H]21 (stereo partly drawn)	5.30 to 5.70
